B1: Syntaxin-binding protein 4, residues 493 to 538; numbered along this chain, Q6ZWJ1 (parent)
chain: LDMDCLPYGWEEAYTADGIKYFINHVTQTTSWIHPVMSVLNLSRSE

Variants of: B1
Assay: abundance fitness (aPCA) (normalised: wild type 0, dead -1); higher = more abundant; growth selection in yeast, the domain comes from the species named
Details: Homo sapiens
Could you please report measured abundance fitness for the items listed next?

Guide cases for abundance fitness, answers given:
Mutant Code | abundance fitness
Y8W | -0.371
I23W | -0.811
A13F | -0.946

Would you be so kind as to report abundance fitness for each listed record?
1. W32S
2. V39D
3. S31Y
4. N24P
5. H34S
6. R44I
7. L6H
8. H34Y

-0.679
0.466
-0.879
-0.837
-0.443
-1.3
-0.844
-0.689

Would you be so kind as to report abundance fitness for each listed record?
1. N41R
2. T27L

-0.493
0.644

Would you be so kind as to report abundance fitness for each listed record?
1. T15Y
2. V39N
3. D2G
4. L1G
5. P35A

1: -0.65; 2: 0.168; 3: -0.366; 4: -0.525; 5: -1.01
